Recorded inhibition for the following compounds
# tgt: Serine/threonine-protein kinase Nek2 (Homo sapiens) (UniProt P51955)
# Sequence (P51955 whole entry): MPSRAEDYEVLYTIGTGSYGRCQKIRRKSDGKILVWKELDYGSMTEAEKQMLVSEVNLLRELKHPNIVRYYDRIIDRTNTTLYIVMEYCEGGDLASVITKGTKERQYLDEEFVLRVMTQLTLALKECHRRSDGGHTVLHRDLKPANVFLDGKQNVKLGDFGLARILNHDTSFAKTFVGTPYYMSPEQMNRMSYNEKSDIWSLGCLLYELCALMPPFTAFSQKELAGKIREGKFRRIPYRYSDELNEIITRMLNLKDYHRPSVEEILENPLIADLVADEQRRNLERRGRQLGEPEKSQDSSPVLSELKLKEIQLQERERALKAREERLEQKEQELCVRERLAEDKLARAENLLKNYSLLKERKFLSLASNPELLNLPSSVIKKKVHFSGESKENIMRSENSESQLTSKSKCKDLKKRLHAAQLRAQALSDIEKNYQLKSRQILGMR
# details: at 1 µM;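 also: reported values are mean percent inhibition of NEK2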
quantity: inhibition

{"item.smiles": "COC(=O)Nc1nc2ccc(Oc3ccc(NC(=O)Nc4cc(C(F)(F)F)ccc4F)cc3)cc2s1", "tgt": "Serine/threonine-protein kinase Nek2 (Homo sapiens) (UniProt P51955)", "quantity": "inhibition", "result": "0.69%"}
{"item.smiles": "CC1(C)CC(n2cnc(-c3ccc(F)cc3)c2-c2ccnc(N)n2)CC(C)(C)N1", "tgt": "Serine/threonine-protein kinase Nek2 (Homo sapiens) (UniProt P51955)", "quantity": "inhibition", "result": "2.07%"}
{"item.smiles": "FC(F)(F)CNc1nccc(-c2cnn3ncccc23)n1", "tgt": "Serine/threonine-protein kinase Nek2 (Homo sapiens) (UniProt P51955)", "quantity": "inhibition", "result": "2.24%"}
{"item.smiles": "COc1ccc2ncn(-c3cc(O[C@H](C)c4ccccc4C(F)(F)F)c(C(N)=O)s3)c2c1", "tgt": "Serine/threonine-protein kinase Nek2 (Homo sapiens) (UniProt P51955)", "quantity": "inhibition", "result": "11.6%"}
{"item.smiles": "COC(=O)Nc1nc2cc(Oc3ccc(NC(=O)Nc4ccccc4)cc3)ccc2[nH]1", "tgt": "Serine/threonine-protein kinase Nek2 (Homo sapiens) (UniProt P51955)", "quantity": "inhibition", "result": "1.76%"}
{"item.smiles": "N#Cc1ccc2c(-c3ccnc(NC4CC4)n3)c(-c3ccc(F)cc3)nn2c1", "tgt": "Serine/threonine-protein kinase Nek2 (Homo sapiens) (UniProt P51955)", "quantity": "inhibition", "result": "1.83%"}
{"item.smiles": "O=C(Nc1n[nH]c2nnc(-c3cccnc3)cc12)C1CC1", "tgt": "Serine/threonine-protein kinase Nek2 (Homo sapiens) (UniProt P51955)", "quantity": "inhibition", "result": "-2.27%"}
{"item.smiles": "CCn1c(-c2nonc2N)nc2cncc(C(=O)NCCNC)c21", "tgt": "Serine/threonine-protein kinase Nek2 (Homo sapiens) (UniProt P51955)", "quantity": "inhibition", "result": "6.84%"}
{"item.smiles": "Cc1nnc(-c2cccc(-c3ccc(C(=O)NCC4CC4)cc3)c2)o1", "tgt": "Serine/threonine-protein kinase Nek2 (Homo sapiens) (UniProt P51955)", "quantity": "inhibition", "result": "5.41%"}
{"item.smiles": "COc1c(C(N)=O)cc(-c2ccc(Cl)cc2)cc1-c1ccc(S(N)(=O)=O)cc1", "tgt": "Serine/threonine-protein kinase Nek2 (Homo sapiens) (UniProt P51955)", "quantity": "inhibition", "result": "5.43%"}
{"item.smiles": "CN(C)CCNC(=O)Nc1ccc(N(C)c2ccnc(Nc3ccc(CS(C)(=O)=O)cc3)n2)cc1", "tgt": "Serine/threonine-protein kinase Nek2 (Homo sapiens) (UniProt P51955)", "quantity": "inhibition", "result": "-2.7%"}
{"item.smiles": "CCCNc1cccc(-n2ncc3c(N/N=C/c4ccncc4)ncnc32)c1", "tgt": "Serine/threonine-protein kinase Nek2 (Homo sapiens) (UniProt P51955)", "quantity": "inhibition", "result": "0.85%"}
{"item.smiles": "O=C1Nc2ccccc2/C1=C1\\CCc2cc(O)ccc21", "tgt": "Serine/threonine-protein kinase Nek2 (Homo sapiens) (UniProt P51955)", "quantity": "inhibition", "result": "5.47%"}
{"item.smiles": "CN1CCC(n2cnc(-c3ccc(F)cc3)c2-c2ccnc(NCCO)n2)CC1", "tgt": "Serine/threonine-protein kinase Nek2 (Homo sapiens) (UniProt P51955)", "quantity": "inhibition", "result": "5.72%"}
{"item.smiles": "N#Cc1cccc(Nc2ncc(-c3ccccc3)o2)c1", "tgt": "Serine/threonine-protein kinase Nek2 (Homo sapiens) (UniProt P51955)", "quantity": "inhibition", "result": "0.06%"}
{"item.smiles": "Cn1c(-c2nonc2N)nc2cnccc21", "tgt": "Serine/threonine-protein kinase Nek2 (Homo sapiens) (UniProt P51955)", "quantity": "inhibition", "result": "3.27%"}
{"item.smiles": "COc1cccc(-n2ncc3c(N/N=C/c4ccc(C(=O)NCCN(C)C)cc4)ncnc32)c1", "tgt": "Serine/threonine-protein kinase Nek2 (Homo sapiens) (UniProt P51955)", "quantity": "inhibition", "result": "1.98%"}
{"item.smiles": "CNC(=O)c1cncc(/C=C/c2ccccc2C)c1", "tgt": "Serine/threonine-protein kinase Nek2 (Homo sapiens) (UniProt P51955)", "quantity": "inhibition", "result": "5.88%"}
{"item.smiles": "COc1cc(N2CCN(C(C)C)CC2)ccc1Nc1nc(Nc2cccc(F)c2C(=O)O)c2cc[nH]c2n1", "tgt": "Serine/threonine-protein kinase Nek2 (Homo sapiens) (UniProt P51955)", "quantity": "inhibition", "result": "3.86%"}
{"item.smiles": "CS(=O)(=O)CCNCc1ccoc1-c1ccc2ncnc(Nc3ccc(OCc4ccccc4)cc3)c2c1", "tgt": "Serine/threonine-protein kinase Nek2 (Homo sapiens) (UniProt P51955)", "quantity": "inhibition", "result": "0.9%"}
{"item.smiles": "NS(=O)(=O)c1ccc(N/N=C2\\C(=O)Nc3cccc(CCc4ccncc4)c32)cc1", "tgt": "Serine/threonine-protein kinase Nek2 (Homo sapiens) (UniProt P51955)", "quantity": "inhibition", "result": "0.63%"}
